Let's look at some compounds and their measured CC50 at 3 days.
Experiment: Cytotoxicity, cell viability by ATPlite Luminescence Assay
Assay type: cell-based, human
Conditions: human, HepG2 or HepG2 117 cells, 3-days incubation (unless marked *), mean value
outcome measure: CC50 at 3 days

1) CC(c1ccc(OC(F)F)cc1)n1ncn2nc3c(c2c1=O)CN(C(=O)c1ccc(Cl)c(Cl)c1)[C@H](C)C3 (single isomer, unassigned) [Compound 8A]
> 50 µM
2) CNC(=O)[C@H]1Cn2nc3c(c2C(=O)N1Cc1ccc(OC(F)F)cc1)CN(C(=O)c1ccc(Cl)c(C#N)c1)[C@H](C)C3 [Compound 3A]
> 50 µM
3) CC1Cn2nc3c(c2C(=O)N1Cc1ccc(OC(F)F)cc1)CN(C(=O)c1ccc(Cl)c(Cl)c1)[C@H](C)C3 (single isomer, unassigned) [Compound 6A]
4.5 µM

----------
As shown below, each of these compounds has a reported CC50 at 3 days value.
Experiment: Cytotoxicity, cell viability by ATPlite Luminescence Assay
Assay type: cell-based, human
Settings: human, HepG2 or HepG2 117 cells, 3-days incubation (unless marked *), mean value
outcome measure: CC50 at 3 days

1) CC(=O)NC[C@@H]1CN([C@@H](C)c2ccc(OC(F)F)cc2)C(=O)c2c3c(nn21)C[C@@H](C)N(C(=O)c1ccc(Cl)c(C#N)c1)C3 (single isomer, unassigned) [Compound 13B]
> 50 µM
2) CC(c1ccc(OC(F)F)cc1)n1ccn2nc3c(c2c1=O)CN(C(=O)c1ccc(Cl)c(Cl)c1)[C@H](C)C3 (single isomer, unassigned) [Compound 10A]
32.8 µM
3) CC(c1ccc(OC(F)F)cc1)n1ncn2nc3c(c2c1=O)CN(C(=O)c1ccc(Cl)c(C#N)c1)[C@H](C)C3 (single isomer, unassigned)
> 50 µM
4) CNC(=O)CC[C@H]1Cn2nc3c(c2C(=O)N1Cc1ccc(OC(F)F)cc1)CN(C(=O)c1ccc(Cl)c(C#N)c1)[C@H](C)C3
> 50 µM
5) CC(c1ccc(OC(F)F)cc1)n1ncn2nc3c(c2c1=O)CN(C(=O)c1ccc(Cl)c(C(F)(F)F)c1)[C@H](C)C3 (single isomer, unassigned)
46.3 µM
6) CC(c1ccc(OC(F)F)cc1)N1CC(CO)n2nc3c(c2C1=O)CN(C(=O)c1ccc(Cl)c(C#N)c1)[C@H](C)C3 (some centres unmarked)
24.9 µM
7) CC(=O)NC[C@H]1CN([C@@H](C)c2ccc(OC(F)F)cc2)C(=O)c2c3c(nn21)C[C@@H](C)N(C(=O)c1ccc(Cl)c(C#N)c1)C3 (single isomer, unassigned) [Compound 13D]
> 50 µM
8) CC(=O)NC[C@@H]1Cn2nc3c(c2C(=O)N1[C@@H](C)c1ccc(OC(F)F)cc1)CN(C(=O)c1ccc(Cl)c(C#N)c1)[C@H](C)C3 (single isomer, unassigned)
> 50 µM
9) CNC(=O)[C@@H]1Cn2nc3c(c2C(=O)N1[C@@H](C)c1ccc(OC(F)F)cc1)CN(C(=O)c1ccc(Cl)c(C#N)c1)[C@H](C)C3 (single isomer, unassigned)
> 50 µM
10) CNC(=O)[C@H]1CN([C@@H](C)c2ccc(OC(F)F)cc2)C(=O)c2c3c(nn21)C[C@@H](C)N(C(=O)c1ccc(Cl)c(C#N)c1)C3 (single isomer, unassigned) [Compound 11B]
> 50 µM
11) CC(c1ccc(OC(F)F)cc1)N1C(=O)c2c3c(nn2CC1CO)C[C@@H](C)N(C(=O)c1ccc(Cl)c(C#N)c1)C3 (some centres unmarked)
25 µM

----------
Tested on: HBV
Test: Anti-HBV activity: intracellular HBV DNA by real-time PCR in HepG2.117 cell line
Type: cell-based, Hepatitis B virus
Settings: HepG2.117 cells, HBV replication induced (absence of doxycycline), 3 days of treatment, mean value
Measured EC50 values are reported for all entries that follow.
outcome measure: EC50

1. CC(=O)NC[C@@H]1Cn2nc3c(c2C(=O)N1[C@@H](C)c1ccc(OC(F)F)cc1)CN(C(=O)c1ccc(Cl)c(C#N)c1)[C@H](C)C3 (single isomer, unassigned) [Compound 1D]
0.491 µM
2. CC(c1ccc(OC(F)F)cc1)n1ccn2nc3c(c2c1=O)CN(C(=O)c1ccc(Cl)c(Cl)c1)[C@H](C)C3 (single isomer, unassigned) [Compound 10B]
0.294 µM
3. CC(c1ccc(OC(F)F)cc1)n1ccn2nc3c(c2c1=O)CN(C(=O)c1ccc(Cl)c(Cl)c1)[C@H](C)C3 (single isomer, unassigned) [Compound 10A]
0.072 µM
4. CC(c1ccc(OC(F)F)cc1)n1ncn2nc3c(c2c1=O)CN(C(=O)c1ccc(Cl)c(C(F)(F)F)c1)[C@H](C)C3 (stereo in doubt)
0.262 µM
5. CC(c1ccc(OC(F)F)cc1)n1ncn2nc3c(c2c1=O)CN(C(=O)c1ccc(Cl)c(C#N)c1)[C@H](C)C3 (stereo in doubt)
0.553 µM
6. CC(=O)NC[C@@H]1Cn2nc3c(c2C(=O)N1[C@@H](C)c1ccc(OC(F)F)cc1)CN(C(=O)c1ccc(Cl)c(C#N)c1)[C@H](C)C3 (single isomer, unassigned) [Compound 1B]
1.48 µM

Reference for the values: patent US20250011326A1
